Biological target: AuroraB (Homo sapiens, UniProt Q96GD4)
Construct: 20 µL of AuroraB FL His; His
Sequence (Q96GD4 whole entry): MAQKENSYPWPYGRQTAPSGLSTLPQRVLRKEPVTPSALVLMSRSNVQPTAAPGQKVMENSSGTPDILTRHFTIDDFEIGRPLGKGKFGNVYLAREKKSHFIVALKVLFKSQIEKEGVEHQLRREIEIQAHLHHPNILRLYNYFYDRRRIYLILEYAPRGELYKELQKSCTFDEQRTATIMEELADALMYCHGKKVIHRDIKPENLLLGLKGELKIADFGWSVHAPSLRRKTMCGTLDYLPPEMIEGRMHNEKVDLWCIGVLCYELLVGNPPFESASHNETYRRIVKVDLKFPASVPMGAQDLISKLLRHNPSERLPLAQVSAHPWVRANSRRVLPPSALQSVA
Test: AuroraB Homogeneous Time Resolved Fluorescent (HTRF) kinase assay
Format: biochemical
Conditions: average; given as class symbols; read-out: AurB_ _IC50_IP (Avg)
Experimental: AuroraB-Homogeneous Time Resolved Fluorescent (HTRF) Kinase Assay: The AuroraB HTRF assay begins with AuroraB in the presence of ATP phosphorylating the biotinylated peptide Histone H3. […] The assay is quenched and stopped with 160 µL of detection reagent. […] Added to this buffer prior to reading is Steptavidin allophycocyanin (SA-APC) at a final conc in the assay of 0.001 mg/mL, and europilated anti-phosphoHistoneH3 Ab (Eu-anti-HisH3) at a final conc of 0.064 nM. […]
PROPERTY MEASURED: IC50

## Input If you can, please state the reported IC50 value of CN1C[C@@H]2C[C@H]1CN2c1nnc(Nc2ccc(Oc3ncccc3-c3ccnc(N)n3)cc2)c2ccccc12 .
## Output 100 to 500 nM

## Input If you can, please state the reported IC50 value of Cc1cc(-c2ccccc2)nnc1Nc1ccc(Oc2ncccc2-c2ccnc3c2CCCN3)cc1 .
## Output 100 to 500 nM

## Input If you can, please state the reported IC50 value of C[C@H](O)c1cccc(-c2nnc(Nc3ccc(Oc4ncccc4-c4ccnc(N)n4)cc3)c3ccccc23)c1 .
## Output ≤ 100 nM

## Input If you can, please state the reported IC50 value of Nc1nccc(-c2cccnc2Oc2ccc(Nc3nnc(-c4cccc(CCO)c4)c4ccccc34)cc2)n1 .
## Output ≤ 100 nM

## Input If you can, please state the reported IC50 value of COc1cccc(-c2nnc(Nc3ccc(Oc4ncccc4-c4ccnc(NCCCN5CCN(C)CC5)n4)cc3)c3ccccc23)n1 .
## Output ≤ 100 nM

## Input If you can, please state the reported IC50 value of Cc1ccnn1-c1nnc(Nc2ccc(Oc3ncccc3-c3ccnc(N)n3)cc2)c2ccccc12 .
## Output ≤ 100 nM

## Input If you can, please state the reported IC50 value of OCCCNc1nccc(-c2cccnc2Oc2ccc(Nc3nnc(-c4ccccc4)c4ccccc34)cc2)n1 .
## Output ≤ 100 nM
